- SYSTEM_NAME: bovine rod photoreceptor CNG channel α subunit (Bos taurus, UniProt Q00194)
- Sequence (Q00194 whole entry): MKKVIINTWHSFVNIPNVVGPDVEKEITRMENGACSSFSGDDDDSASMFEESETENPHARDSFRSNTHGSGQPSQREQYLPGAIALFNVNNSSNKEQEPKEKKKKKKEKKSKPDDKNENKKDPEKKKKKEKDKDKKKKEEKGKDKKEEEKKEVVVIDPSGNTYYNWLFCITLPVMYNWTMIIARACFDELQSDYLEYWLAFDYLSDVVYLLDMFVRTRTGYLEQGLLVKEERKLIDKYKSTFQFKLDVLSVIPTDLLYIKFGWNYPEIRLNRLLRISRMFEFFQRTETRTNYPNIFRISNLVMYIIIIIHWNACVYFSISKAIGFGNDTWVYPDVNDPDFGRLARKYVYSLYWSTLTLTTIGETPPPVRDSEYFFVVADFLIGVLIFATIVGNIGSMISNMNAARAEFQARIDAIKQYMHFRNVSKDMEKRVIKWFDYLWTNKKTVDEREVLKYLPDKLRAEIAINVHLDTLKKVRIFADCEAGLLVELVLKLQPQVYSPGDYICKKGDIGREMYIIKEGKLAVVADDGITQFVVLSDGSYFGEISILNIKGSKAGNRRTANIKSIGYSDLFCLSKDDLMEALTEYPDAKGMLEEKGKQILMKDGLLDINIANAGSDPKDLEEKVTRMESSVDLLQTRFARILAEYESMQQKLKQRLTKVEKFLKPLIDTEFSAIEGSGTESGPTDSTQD
- METHOD_DESCRIPTION: Inside-out patch clamp of rod CNG channels expressed in Xenopus oocytes
- Type: biochemical
- CONDITION_DESCRIPTION: apparent affinity of genistein for the rod channel, closed to activated channels
pKi: −log10 of the molar value.
VALUE_KIND: pKi

[[record]]
compound = "O=c1c(-c2ccc(O)cc2)coc2cc(O)cc(O)c12"
value_kind = "pKi"
recorded_result = "4.10 to 5.30"


* * *

- SYSTEM_NAME: bovine rod photoreceptor CNG channel α subunit (Bos taurus, UniProt Q00194)
- METHOD_DESCRIPTION: Inside-out patch clamp of rod CNG channels expressed in Xenopus oocytes
- Assay type: biochemical
- CONDITION_DESCRIPTION: K i for genistein inhibition of CNG current activation by cGMP, in the presence of 1 mM ATP
VALUE_KIND: Ki (µM)

[[record]]
compound = "O=c1c(-c2ccc(O)cc2)coc2cc(O)cc(O)c12 [genistein]"
value_kind = "Ki"
recorded_result = 10.6

